Where do the numbers come from? From ChEMBL document CHEMBL3045887.

System: Mus musculus
Assay: Neurotoxicity against Swiss albino Mus musculus (mouse) at 30 mg/kg, ip measured at 4 hr
Format: toxicity, organism-based
Design: dose 30 mg/kg, route intraperitoneal
Conditions: in vivo
measured metric: Activity

O=C(CNC(=O)c1ccccc1)Nc1ccccc1Cl :: Non-toxic
O=C(CNC(=O)c1ccccc1Cl)Nc1ccccc1 :: Non-toxic
O=C(CNC(=O)c1ccc([N+](=O)[O-])cc1)Nc1ccccc1 :: Non-toxic
COc1ccccc1NC(=O)CNC(=O)c1ccccc1 :: Non-toxic

* * *

System: Mus musculus
Experiment: Anticonvulsant activity in Swiss albino Mus musculus (mouse) assessed as protection against maximal electric shock-induced tonic-clonic seizures at 300 mg/kg, ip measured at 4 hr
Type: functional, organism-based
Parameters: dose 300 mg/kg
The source made the active and inactive calls. No cut-off for these calls is given here.
measured metric: Activity

Below, each entry is followed by its recorded Activity result.
COc1ccc(NC(=O)CNC(=O)c2ccccc2)cc1 :: Active
Cc1ccccc1NC(=O)CNC(=O)c1ccccc1 :: inactive
O=C(CNC(=O)c1ccc([N+](=O)[O-])cc1)Nc1ccccc1 :: inactive
CC(C)c1ccccc1NC(=O)CNC(=O)c1ccccc1 :: inactive

Query Cc1cccc(C)c1NC(=O)CNC(=O)c1ccccc1 yields Activity of Active

Query O=C(CNC(=O)c1ccccc1)Nc1ccccc1Cl yields Activity of inactive

* * *

Tested on: Mus musculus
Assay: Anticonvulsant activity in Swiss albino Mus musculus (mouse) assessed as protection against maximal electric shock-induced tonic-clonic seizures at 300 mg/kg, ip measured at 0.5 hr
Format: functional, organism-based
Set-up: dose 300 mg/kg
Calls of active or inactive are those of the source. No cut-off for these calls is given here.
measured metric: Activity

Cc1ccc(C(=O)NCC(=O)Nc2ccccc2)cc1 :: inactive
O=C(CNC(=O)c1ccccc1)Nc1ccccc1 :: Active
COc1ccccc1NC(=O)CNC(=O)c1ccccc1 :: inactive
COc1ccc(NC(=O)CNC(=O)c2ccccc2)cc1 :: Active

* * *

Tested on: Mus musculus
Experiment: Anticonvulsant activity in Swiss albino Mus musculus (mouse) assessed as protection against maximal electric shock-induced tonic-clonic seizures at 300 mg/kg, ip measured at 0.5 hr
Type: functional, organism-based
Design: dose 300 mg/kg
The source made the active and inactive calls. The calls are words filed in the database; no cut-off is given here.
Please answer using one outcome listed in class 1 (active), class 0 (inactive)

Qu. Would you mind telling me which call this test gave CCc1ccccc1NC(=O)CNC(=O)c1ccccc1 ?
Ans. class 0

Qu. Would you mind telling me which call this test gave O=C(CNC(=O)c1ccc([N+](=O)[O-])cc1)Nc1ccccc1 ?
Ans. class 0

Qu. Would you mind telling me which call this test gave CC(C)c1ccccc1NC(=O)CNC(=O)c1ccccc1 ?
Ans. class 1

Qu. Would you mind telling me which call this test gave Cc1ccccc1NC(=O)CNC(=O)c1ccccc1 ?
Ans. class 1

Qu. Would you mind telling me which call this test gave Cc1cccc(C)c1NC(=O)CNC(=O)c1ccccc1 ?
Ans. class 0

Qu. Would you mind telling me which call this test gave O=C(CNC(=O)c1ccccc1Cl)Nc1ccccc1 ?
Ans. class 0

Qu. Would you mind telling me which call this test gave O=C(CNC(=O)c1ccccc1)Nc1ccccc1Cl ?
Ans. class 0

* * *

Tested on: Mus musculus
Assay: Anticonvulsant activity in Swiss albino Mus musculus (mouse) assessed as protection against maximal electric shock-induced tonic-clonic seizures at 300 mg/kg, ip measured at 4 hr
Assay type: functional, organism-based
Design: dose 300 mg/kg
Calls of active or inactive are those of the source. The rule behind the calls is not given here.
measured metric: Activity

COc1ccccc1NC(=O)CNC(=O)c1ccccc1 :: inactive
CCc1ccccc1NC(=O)CNC(=O)c1ccccc1 :: inactive
O=C(CNC(=O)c1ccccc1)Nc1ccccc1 :: inactive
Cc1ccc(C(=O)NCC(=O)Nc2ccccc2)cc1 :: inactive
